assay: In vivo pharmacokinetic study in mice; design: species or system ICR mice; settings: ICR, mouse, plasma, iv, 1 mg/kg i.v., mean ± SD, n = 3
metric name: clearance
I'd appreciate it if you included the unit after the number.

Query: Look up clearance: COC(=O)C1=CC[C@@]23CC[C@@H]([C@@](C)(/C=C/C=C(\C)C(=O)NNCCO)OC2=O)[C@@]3(OC(C)=O)CC1
Reply: 46.1 mL/min/kg

###

Test: In vivo pharmacokinetic study in mice
Set-up: species or system ICR mice
Conditions: ICR, mouse, plasma, iv, 1 mg/kg i.v., mean ± SD, n = 3, read-out: MRT0–∞
Experimental: To investigate the druggability of compound 12, the pharmacokinetic (PK) properties of 12 were examined in mice. The mice were treated with 12 intravenously (i.v.) at a dose of 1 mg/kg, and the resulting PK parameters were recorded. ICR mice (n = 3) were administered with the test compound via intravenous injection at 1 mg/kg. Blood samples were collected 0.083, 0.25, 0.5, 1, 2, 4, 8, and 24 h after administration. […]
metric name: MRT inf (h)
Quick note: give the figure in h, leave out the unit.

Query: Look up MRT inf: COC(=O)C1=CC[C@@]23CC[C@@H]([C@@](C)(/C=C/C=C(\C)C(=O)NNCCO)OC2=O)[C@@]3(OC(C)=O)CC1
Reply: 63.1

###

Experiment: In vivo pharmacokinetic study in mice
Parameters: species or system ICR mice
Conditions: ICR, mouse, plasma, iv, 1 mg/kg i.v., mean ± SD, n = 3
Experimental: To investigate the druggability of compound 12, the pharmacokinetic (PK) properties of 12 were examined in mice. The mice were treated with 12 intravenously (i.v.) at a dose of 1 mg/kg, and the resulting PK parameters were recorded. ICR mice (n = 3) were administered with the test compound via intravenous injection at 1 mg/kg. Blood samples were collected 0.083, 0.25, 0.5, 1, 2, 4, 8, and 24 h after administration. […]
metric name: AUC(0-inf)
I'd appreciate it if you included the unit after the number.

Query: Look up AUC(0-inf): COC(=O)C1=CC[C@@]23CC[C@@H]([C@@](C)(/C=C/C=C(\C)C(=O)NNCCO)OC2=O)[C@@]3(OC(C)=O)CC1
Reply: 363 ng·h/mL

###

assay: In vivo pharmacokinetic study in mice; design: species or system ICR mice; conditions: ICR, mouse, plasma, iv, 1 mg/kg i.v., mean ± SD, n = 3
metric name: half-life (h)
Quick note: give the figure in h, leave out the unit.

Query: Look up half-life: COC(=O)C1=CC[C@@]23CC[C@@H]([C@@](C)(/C=C/C=C(\C)C(=O)NNCCO)OC2=O)[C@@]3(OC(C)=O)CC1
Reply: 40.2

###

test: In vivo pharmacokinetic study in mice; parameters: species or system ICR mice; details: ICR, mouse, plasma, iv, 1 mg/kg, 1 mg/kg i.v., mean ± SD, n = 3, read-out: Tmax
metric name: Tmax (min)
Quick note: give the figure in min, leave out the unit.

Query: Look up Tmax: COC(=O)C1=CC[C@@]23CC[C@@H]([C@@](C)(/C=C/C=C(\C)C(=O)NNCCO)OC2=O)[C@@]3(OC(C)=O)CC1 [compound 12]
Reply: 4.98

###

experiment: In vivo pharmacokinetic study in mice; set-up: species or system ICR mice; conditions: ICR, mouse, plasma, iv, 1 mg/kg i.v., mean ± SD, n = 3
metric name: Cmax (ng/mL)
Quick note: give the figure in ng/mL, leave out the unit.

Query: Look up Cmax: COC(=O)C1=CC[C@@]23CC[C@@H]([C@@](C)(/C=C/C=C(\C)C(=O)NNCCO)OC2=O)[C@@]3(OC(C)=O)CC1 [compound 12]
Reply: 32.1
